Assay: Cytotoxicity against human MT4 cells after 3 days by MTT assay
Assay type: cell-based
Settings: MT4 cells
Parameter Measured: CC50 at 72 h

{"Mol Smiles": "CCC(C)(C)NC(=O)COC(=O)c1ccc([N+](=O)[O-])o1", "Test Value": "> 100 µM"}
{"Mol Smiles": "O=C(OCCc1ccc([N+](=O)[O-])cc1)c1ccc([N+](=O)[O-])o1", "Test Value": "28 µM"}
{"Mol Smiles": "CC(C)(C)NC(=O)COC(=O)c1ccc([N+](=O)[O-])o1", "Test Value": "> 100 µM"}
{"Mol Smiles": "CC(C)(C)N(Cc1ccc(C(F)(F)F)cc1)C(=O)COC(=O)c1ccc([N+](=O)[O-])o1", "Test Value": "71 µM"}
{"Mol Smiles": "CC(C)(C)N(Cc1c(F)c(F)c(F)c(F)c1F)C(=O)COC(=O)c1ccc([N+](=O)[O-])o1", "Test Value": "> 100 µM"}
{"Mol Smiles": "CC(C)(C)N(Cc1ccc([N+](=O)[O-])cc1)C(=O)COC(=O)c1ccc([N+](=O)[O-])o1", "Test Value": "> 100 µM"}
{"Mol Smiles": "COc1ccc(CN(C(=O)COC(=O)c2ccc([N+](=O)[O-])o2)C(C)(C)C)cc1", "Test Value": "> 100 µM"}
{"Mol Smiles": "CC(C)(NC(=O)COC(=O)c1ccc([N+](=O)[O-])o1)c1ccccc1", "Test Value": "> 100 µM"}
{"Mol Smiles": "CC(C)(C)C(=O)COC(=O)c1ccc([N+](=O)[O-])o1", "Test Value": "> 100 µM"}

###

# IC50 measurements, system: Human immunodeficiency virus type 1 reverse transcriptase (Human immunodeficiency virus 1)

{"Compound": "CC(C)(C)NC(=O)COC(=O)c1ccc([N+](=O)[O-])o1", "Quantity Unit": "µM", "Bound Type": "=", "IC50": 18}
{"Compound": "CC(C)(C)N(Cc1ccccc1)C(=O)COC(=O)c1cc([N+](=O)[O-])cc([N+](=O)[O-])c1", "Quantity Unit": "µM", "Bound Type": ">", "IC50": 50}
{"Compound": "CCC(C)(C)N(Cc1cccc([N+](=O)[O-])c1)C(=O)COC(=O)c1ccc([N+](=O)[O-])s1", "Quantity Unit": "µM", "Bound Type": "=", "IC50": 25.8}
{"Compound": "O=C(OCC(=O)N(Cc1ccc(O)cc1)CC1CCCO1)c1ccc([N+](=O)[O-])o1 (stereo not drawn)", "Quantity Unit": "µM", "Bound Type": "=", "IC50": 5}
{"Compound": "CC(C)(C)NC(=O)COC(=O)c1ccno1", "Quantity Unit": "µM", "Bound Type": ">", "IC50": 50}
{"Compound": "CC(C)(C)N(CCC(=O)c1ccccc1)C(=O)COC(=O)c1ccc([N+](=O)[O-])o1", "Quantity Unit": "µM", "Bound Type": ">", "IC50": 50}
{"Compound": "CCC(C)(C)N(Cc1ccc([N+](=O)[O-])cc1)C(=O)COC(=O)c1ccc([N+](=O)[O-])s1", "Quantity Unit": "µM", "Bound Type": "=", "IC50": 33.5}
{"Compound": "CC(C)(C)NC(=O)COC(=O)c1ccc(Br)o1", "Quantity Unit": "µM", "Bound Type": ">", "IC50": 50}

###

Target: Human immunodeficiency virus type 1 reverse transcriptase (Human immunodeficiency virus 1, UniProt Q72547)
# yes (1) = IC50 below 9 µM (exclusive); no (0) = IC50 at/above 9 µM

{"Molecule": "CC(C)(C)NC(=O)COC(=O)c1ccc(-c2cccc([N+](=O)[O-])c2)o1", "Category": "no (0)"}
{"Molecule": "O=C(COC(=O)c1ccc([N+](=O)[O-])o1)NC1CCc2ccccc21 (stereo not drawn)", "Category": "yes (1)"}
{"Molecule": "CC(C)(NC(=O)COC(=O)c1ccc([N+](=O)[O-])o1)c1ccccc1", "Category": "yes (1)"}
{"Molecule": "O=C(OCC(=O)N(Cc1ccccc1)CC1CCCO1)c1ccc([N+](=O)[O-])o1 (stereo not drawn)", "Category": "yes (1)"}
{"Molecule": "O=C(COC(=O)c1ccc([N+](=O)[O-])o1)NCC1CCCO1 (stereo not drawn)", "Category": "yes (1)"}
{"Molecule": "CC(=O)COC(=O)c1ccc([N+](=O)[O-])s1", "Category": "no (0)"}
{"Molecule": "CC(C)(C)NC(=O)COC(=O)c1ccc([N+](=O)[O-])cc1", "Category": "no (0)"}
{"Molecule": "CCOC(=O)[C@@H](NC(=O)c1ccc([N+](=O)[O-])o1)c1ccccc1", "Category": "no (0)"}
{"Molecule": "CC(C)(C)N(CCc1ccccc1)C(=O)COC(=O)c1ccc([N+](=O)[O-])o1", "Category": "no (0)"}
{"Molecule": "CC(C)(C)N(Cc1ccc([N+](=O)[O-])cc1)C(=O)COC(=O)c1ccc([N+](=O)[O-])o1", "Category": "yes (1)"}
{"Molecule": "CC(C)(C)N(Cc1ccccc1)C(=O)COC(=O)c1ccco1", "Category": "no (0)"}
{"Molecule": "CC(C)(C)NC(=O)COC(=O)c1cccc([N+](=O)[O-])c1", "Category": "no (0)"}

###

# reported IC50; entries follow
Biological target: Human immunodeficiency virus type 1 reverse transcriptase (Human immunodeficiency virus 1)
Parameter Measured: IC50

{"Mol Smiles": "CC(C)(C)NC(=O)COC(=O)c1ccccc1[N+](=O)[O-]", "Parameter Measured": "IC50", "Test Value": "> 50 µM"}
{"Mol Smiles": "CC(C)(C)NC(=O)COC(=O)c1ccc(C(=O)c2ccccc2)o1", "Parameter Measured": "IC50", "Test Value": "> 50 µM"}
{"Mol Smiles": "CC(C)(C)NC(=O)COC(=O)c1ccc(-c2ccccc2[N+](=O)[O-])o1", "Parameter Measured": "IC50", "Test Value": "> 50 µM"}

###

Experiment: Cytotoxicity against human 293T cells after 3 days by MTT assay
Assay type: cell-based, HEK-293T
Conditions: 293T cells
# reported CC50 at 72 h; entries follow

{"Compound": "O=C(COC(=O)c1ccc([N+](=O)[O-])o1)NC1CCCc2ccccc21 (stereo not given)", "Bound Type": ">", "CC50 at 72 h / µM": 100}
{"Compound": "CC(C)(C)N(Cc1cccc([N+](=O)[O-])c1)C(=O)COC(=O)c1ccc([N+](=O)[O-])o1", "Bound Type": "=", "CC50 at 72 h / µM": 78}
{"Compound": "CC(C)(C)N(Cc1c(F)c(F)c(F)c(F)c1F)C(=O)COC(=O)c1ccc([N+](=O)[O-])o1", "Bound Type": "=", "CC50 at 72 h / µM": 83}
{"Compound": "CC(C)(C)NC(=O)COC(=O)c1ccc([N+](=O)[O-])s1", "Bound Type": ">", "CC50 at 72 h / µM": 100}
{"Compound": "CC(=O)Oc1ccc(CN(C(=O)COC(=O)c2ccc([N+](=O)[O-])o2)C(C)(C)C)cc1", "Bound Type": ">", "CC50 at 72 h / µM": 100}
